Listed next: entries and their corresponding EC50.
System Tested: T1, mouse DLL4 extracellular domain (mouse, UniProt Q9JI71 27-532)
T1 construct: extracellular domain; also called muDLL4 ECD; murine DLL4
T1 sequence (Q9JI71 27-532): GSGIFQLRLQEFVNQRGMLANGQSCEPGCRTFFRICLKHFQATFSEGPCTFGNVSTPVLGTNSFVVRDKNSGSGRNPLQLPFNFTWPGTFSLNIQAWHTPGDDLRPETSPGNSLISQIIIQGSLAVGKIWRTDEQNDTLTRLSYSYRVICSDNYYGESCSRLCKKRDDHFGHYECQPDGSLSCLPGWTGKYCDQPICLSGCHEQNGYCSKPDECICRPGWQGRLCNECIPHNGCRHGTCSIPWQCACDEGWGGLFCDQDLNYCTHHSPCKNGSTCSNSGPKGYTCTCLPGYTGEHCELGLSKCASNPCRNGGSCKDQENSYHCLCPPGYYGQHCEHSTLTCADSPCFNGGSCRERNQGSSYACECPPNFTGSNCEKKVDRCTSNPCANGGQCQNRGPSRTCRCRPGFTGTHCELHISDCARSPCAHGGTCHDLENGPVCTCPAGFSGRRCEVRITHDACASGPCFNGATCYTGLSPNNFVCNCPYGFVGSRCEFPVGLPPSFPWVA
Assay Overview: binding ELISA
Description: Plates were then washed 3 times. 100 μl/well of recombinant rat/human chimeric or recombinant human anti-DLL4 antibodies were then added to the plate (0.00164-27 nM, 4-fold serial dilution in ELISA buffer=PBST, 10% Superblock (Pierce #37515)) for 1 hour at 25° C. with shaking and then washed again 3 times. […] The reaction was stopped after 8 minutes at 25° C. with 100 μl/well 1N HCl and the absorbance was read at 450 nm. Data were analyzed using Graphpad Prism software, and EC50 values were reported. […]
Kindly report the value followed by its unit.

# count of solved cases: 3
>>> reported_result("h1A11.12 (antibody, V domains shown, humanized IgG; also called VH.1b/VL.2a 1A11) VH: EVQLVESGGGLVQPGGSLRLSCAASGFTFSNFPMAWVRQAPGKGLEWVATISSSDGTTYYRDSVKGRFTISRDNAKNSLYLQMNSLRAEDTAVYYCSRGYYNSPFAYWGQGTLVTVSS VL: EIVMTQSPATLSVSPGERATLSCRASEDIYSNLAWYQQKPGQSPRLLIFDTNNLADGVPARFSGSGSGTESTLTISSLQSEDFAVYFCQQYNNYPPTFGQGTKLEIKR")
"0.08 nM"
>>> reported_result("h1A11.4 (antibody, V domains shown, humanized IgG; also called VH.1/VL.2a 1A11) VH: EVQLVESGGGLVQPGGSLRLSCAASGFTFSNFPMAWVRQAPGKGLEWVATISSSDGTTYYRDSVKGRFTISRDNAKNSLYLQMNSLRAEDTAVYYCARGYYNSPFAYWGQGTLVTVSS VL: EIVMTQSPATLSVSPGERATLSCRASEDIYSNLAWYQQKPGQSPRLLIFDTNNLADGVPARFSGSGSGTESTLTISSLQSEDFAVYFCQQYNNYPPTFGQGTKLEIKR")
"0.09 nM"
>>> reported_result("h1A11.9 (antibody, V domains shown, humanized IgG; also called VH.1b/VL.1 1A11) VH: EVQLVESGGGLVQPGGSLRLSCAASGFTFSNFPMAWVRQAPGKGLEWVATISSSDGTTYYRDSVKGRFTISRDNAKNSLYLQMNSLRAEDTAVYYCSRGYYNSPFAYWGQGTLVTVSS VL: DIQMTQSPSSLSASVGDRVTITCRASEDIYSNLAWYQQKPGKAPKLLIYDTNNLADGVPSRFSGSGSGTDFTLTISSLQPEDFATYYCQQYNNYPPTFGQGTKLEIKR")
"0.09 nM"

Okay, now this binder:
Input line: Please report the recorded EC50 for h1A11.15 (antibody, V domains shown, humanized IgG; also called VH.2a/VL.1b 1A11) VH: EVQLVESGGGLVQPGGSLRLSCAASGFTFSNFPMAWVRQAPGKGLEWVATISSSDGTTYYRDSVKGRFTISRDNSKSTLYLQMNSLRAEDTAVYYCSRGYYNSPFAYWGQGTLVTVSS VL: DIQMTQSPSSLSASVGDRVTITCRASEDIYSNLAWYQQKPGKAPKLLIFDTNNLADGVPSRFSGSGSGTDFTLTISSLQPEDFATYYCQQYNNYPPTFGQGTKLEIKR .
Output line: 0.09 nM
